Ref: patent US10710986B2

# Measured target: PD-1/PD-L1 (Homo sapiens (Human), UniProt Q9NZQ7)
# Sequence (Q9NZQ7 19-238): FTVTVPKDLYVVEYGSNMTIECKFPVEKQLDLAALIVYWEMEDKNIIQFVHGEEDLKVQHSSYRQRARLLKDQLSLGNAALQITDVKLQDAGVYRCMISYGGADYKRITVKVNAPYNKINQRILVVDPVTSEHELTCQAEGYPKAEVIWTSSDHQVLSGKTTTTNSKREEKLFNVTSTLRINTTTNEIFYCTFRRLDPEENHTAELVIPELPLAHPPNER
# Test: PD-1/PD-L1 biochemical protein-protein interaction assay (ALPHA)
# Cond: 0.3 nM His tagged PD-L1, 2.5 nM biotinylated Fc-PD-1, 60 minutes at 25° C., read-out: IC50 PD-L1-PD1
pIC50: −log10 of the molar value.
Measurement kind: pIC50

COC[C@@H]1C[C@H](OC)CN1Cc1ncc(-c2cccc(-c3cccc(-c4cnc(CNC[C@@H]5CCC(=O)N5)c(OC)n4)c3Cl)c2Cl)nc1OC :: 9.67

P: COc1nc(-c2cccc(-c3cccc(-c4cnc(CN5CC6(CCOC6)C5)c(OC)n4)c3Cl)c2Cl)cnc1CNC[C@@H]1CCC(=O)N1
Q: COc1nc(-c2cccc(-c3cccc(-c4cnc(CNC[C@@H]5CCCN5C(C)=O)c(OC)n4)c3Cl)c2Cl)cnc1CNC[C@@H]1CCC(=O)N1
// pick min by pIC50: P , Q Lab log: write the label of the selected item as the result.
Q

###

# Measured target: PD-1/PD-L1 (Homo sapiens (Human), UniProt Q9NZQ7)
# Test: PD-1/PD-L1 biochemical protein-protein interaction assay (ALPHA)
# Cond: 0.3 nM His tagged PD-L1, 2.5 nM biotinylated Fc-PD-1, 60 minutes at 25° C., read-out: IC50 PD-L1-PD1
pIC50: −log10 of the molar value.
Measurement kind: pIC50

Below, 6 compounds whose answers are already recorded.
COc1nc(-c2cccc(-c3cccc(-c4cnc(CN5CCC(C)(O)C5)c(OC)n4)c3Cl)c2Cl)cnc1CN1CCC(C)(O)C1 (centres unmarked) :: 9.89
COc1nc(-c2cccc(-c3cccc(-c4cc(C)c(CN5CC6(CNC(=O)C6)C5)c(OC)n4)c3F)c2Cl)cnc1CN1CC2(CNC(=O)C2)C1 :: 10.19
COc1nc(-c2cccc(-c3cccc(-c4cnc(CN5CC[C@@H](C(C)(C)O)C5)c(OC)n4)c3Cl)c2Cl)cnc1CNC[C@@H]1CCC(=O)N1 :: 10.06
COc1nc(-c2cccc(-c3cccc(-c4cnc(CNC5CC5)c(OC)n4)c3Cl)c2Cl)cnc1CNC[C@@H]1CCC(=O)N1 :: 9.12
COc1nc(-c2cccc(-c3cccc(-c4cnc(CNCC5CCNC(=O)C5)c(OC)n4)c3Cl)c2Cl)cnc1CNCC1CCNC(=O)C1 (centres unmarked) :: 9.87
CN(C)c1nc(-c2cccc(-c3cccc(-c4cnc(CN5CC6(CNC(=O)C6)C5)c(N(C)C)n4)c3Cl)c2Cl)cnc1CN1CC2(CNC(=O)C2)C1 :: 9.89

A: COc1nc(-c2cccc(-c3cccc(-c4cnc(CN5CC[C@@H](C(=O)O)C5)c(OC)n4)c3Cl)c2Cl)cnc1CNC[C@@H]1CCC(=O)N1
B: COc1nc(-c2cccc(-c3cccc(-c4cnc(CN5[C@@H](C)COC[C@@H]5C)c(OC)n4)c3Cl)c2Cl)cnc1CNC[C@@H]1CCC(=O)N1
Endpoint returns the identifier whose pIC50 is numerically larger, either A or B . Lab log: write the label of the selected item as the result.
A

###

# Measured target: PD-1/PD-L1 (Homo sapiens (Human))
# Test: PD-1/PD-L1 biochemical protein-protein interaction assay (ALPHA)
# Cond: 0.3 nM His tagged PD-L1, 2.5 nM biotinylated Fc-PD-1, 60 minutes at 25° C., read-out: IC50 PD-L1-PD1
Measurement kind: IC50 (nM)

Below, 2 compounds whose answers are already recorded.
COc1nc(-c2cccc(-c3cccc(-c4cnc(CN5CCC(F)(F)CC5)c(OC)n4)c3Cl)c2Cl)cnc1CNC[C@@H]1CCC(=O)N1 :: 1.57
COc1nc(-c2cccc(-c3cccc(-c4cnc(CN5C[C@H](O)[C@@H](F)C5)c(OC)n4)c3Cl)c2Cl)cnc1CNC[C@@H]1CCC(=O)N1 :: 0.225

A: COc1nc(-c2cccc(-c3cccc(-c4cnc(CNC[C@@H]5CCC(=O)N5)c(OC)n4)c3Cl)c2Cl)ccc1CNC[C@@H]1CCC(=O)N1
B: COc1nc(-c2cccc(-c3cccc(-c4cnc(CN5CC(C(C)(C)O)C5)c(OC5CC5)n4)c3Cl)c2Cl)ccc1CN1CC(C(C)(C)O)C1
Endpoint returns the identifier whose IC50 is numerically larger, either A or B . Lab log: write the label of the selected item as the result.
A
(A: 0.272 nM, B: 0.098 nM)
